experiment: NCI Yeast Anticancer Drug Screen. Data for the sgs1 mgt1 strain (AID 161);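 note: 0% = growth of cultures given vehicle only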; conditions: S. cerevisiae sgs1 mgt1 strain, at 50.0 µM
Compounds without any hit were thinned out: in the full panel of roughly 79,000, 15% have a hit. The source made the active and inactive calls. Cut-off read from the data, not from the text of the source: active = growth inhibition above about 70%; inactive = the rest.
Result category, one only: 1 = active, 0 = inactive

Answered cases to consult:
{"Compound": "Nc1ncnc2c1ccn2C1OC2COP(=O)(O)OC2C1O (centres undefined)", "Discrete Label": 0}
{"Compound": "CSc1nc(C)cc(Nc2ccc(O)c(CN3CCOCC3)c2)n1", "Discrete Label": 0}
{"Compound": "CCOC(=O)Nc1nc(-c2ccccc2)c(C)s1", "Discrete Label": 0}
{"Compound": "CCCCCCCCN1N=CC(CC)C1CCC (centres undefined)", "Discrete Label": 0}
{"Compound": "Cc1cccc2c1C1C(CC2=O)C(=O)c2ccccc2C1C (centres undefined)", "Discrete Label": 0}
{"Compound": "O=C1CCCCCCCS(=O)(=O)C1", "Discrete Label": 0}

**Q:** So what was the verdict on C/C(C=C(C#N)C#N)=C\c1ccc(F)cc1 in this test?
**A:** 0

**Q:** What call does the record list for COC1CC(N=[N+]=[N-])C(OS(C)(=O)=O)C(C)O1 (centres undefined) ?
**A:** 0

**Q:** Which outcome was assigned to COc1ccccc1C(=O)N(C)c1ccc(Cl)c(C(=O)OC(C)C)c1 in this test?
**A:** 0

**Q:** Any idea what this test logged for ClC1CC2CCC1C2Br (centres undefined) (tested in a mixture with another compound) ?
**A:** 0

**Q:** Lab log entry: COc1ccc2cc(OC)ccc2c1 — outcome as called in the assay?
**A:** 0

**Q:** Which outcome was entered for the compound Cc1cn(CCCCCCCCCCCCOc2c3occc3cc3ccc(=O)oc23)c(=O)[nH]c1=O in this test?
**A:** 0

**Q:** Hi, sorry to bother you, what did the test record for CC(=O)OCCCC1CO1 (centres undefined) ?
**A:** 0

###

assay: NCI Yeast Anticancer Drug Screen. Data for the rad50 strain (AID 155);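 note: 0% = growth of vehicle-only cultures of the same strain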; conditions: S. cerevisiae rad50 strain growth inhibition; at 50.0 µM; hits give high values
This is part of a sample that, as a whole, favours compounds with a hit. Of some 79,000 tested, about 15% had one in any assay.
Measured growth inhibition values are reported for all entries that follow.
State the answer as a number, implicitly in %.

{"Compound": "CC1=C(C(=O)O)CCCO1", "growth inhibition (%)": -7.6}

**Q:** // growth inhibition lookup, key: CCOC(=O)CC1(O)Oc2cc3c(cc2C(c2cc(OC)c(OC)c(OC)c2)C1C(=O)OCC)OCO3 (configuration not stated)
**A:** -0.75

**Q:** Requested read-out: growth inhibition. Entry: O=c1[nH]/c(=C/c2ccc3c(c2)OCO3)c(=O)[nH]/c1=C/c1ccc2c(c1)OCO2
**A:** -24.2

###

test: NCI Yeast Anticancer Drug Screen. Data for the bub3 strain (AID 167); details: S. cerevisiae bub3 mutant strain, at 50.0 µM, hits give high values
About 79,000 compounds went through this panel and 15% of them were active in at least one assay; those are over-represented in the sample as a whole.
Attribute: growth inhibition
Please state the figure in %; there is no need to write the unit.

{"Compound": "NC1=NN(c2ccccc2)C(=O)C1C(=O)C(=O)Nc1ccc(Cl)c(Cl)c1 (stereo unspecified)", "growth inhibition [%]": 12.2}
{"Compound": "Cc1cc2nc(N3CCCCC3)n(C3OC(CO)C(O)C3O)c2cc1C (stereo unspecified)", "growth inhibition [%]": -8.75}
{"Compound": "COC(=O)CC(c1ccc2c(c1)OCO2)N1CCCCC1 (stereo unspecified)", "growth inhibition [%]": -1}
{"Compound": "COC1C(=O)c2ccccc2N1C(C)=O (stereo unspecified)", "growth inhibition [%]": -6.85}
{"Compound": "FC(F)(F)c1ccc(C=NC23CC4CC(CC(C4)C2)C3)cc1", "growth inhibition [%]": -18.9}
{"Compound": "O=C(NC1CCCCC1)Oc1ccc(-c2ccccc2)cc1Cl", "growth inhibition [%]": 99}
{"Compound": "NC(=O)C(=O)C1CCC2=C(Sc3ccccc3N2)C1=O (stereo unspecified)", "growth inhibition [%]": 34}
{"Compound": "CC(=O)OC1CC[C@@]2(C)C(CC[C@]3(C)C2CC=C2[C@@H]4C(C)[C@H](C)CCC4(C)CCC23C)[C@@]1(C)C(=O)O (stereo partly specified)", "growth inhibition [%]": 48.1}

**Q:** Which growth inhibition is reported for this compound? O=C(NCCN1CCOCC1)c1ccc(C(=O)NCCN2CCOCC2)cc1
**A:** 1.6

**Q:** For the compound CC(=O)C1=CN(C)c2ccccc2S1 , what growth inhibition is on record?
**A:** -12.8

**Q:** Any idea what growth inhibition was measured for Nc1ccccc1/C=C/c1ccnc2ccccc12 ?
**A:** -18.1

###

test: NCI Yeast Anticancer Drug Screen. Data for the sgs1 mgt1 strain (AID 161);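 note: 0% = growth of cultures given vehicle only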; settings: S. cerevisiae sgs1 mgt1 strain, at 50.0 µM
This is part of a sample that, as a whole, favours compounds with a hit. Of some 79,000 tested, about 15% had one in any assay. Calls of active or inactive are those of the source. Cut-off read from the data, not from the text of the source: active = growth inhibition above about 70%; inactive = the rest.
Pick one and only one: active, inactive

{"Molecule": "CC(C)=CCNc1nc(Cl)nc2nc[nH]c12", "Discrete Label": "inactive"}
{"Molecule": "COc1ccc(C(C#N)NNc2nc(C)cc(=O)[nH]2)cc1OC (stereo not given)", "Discrete Label": "inactive"}

**Q:** Lab log entry: CC(=O)NC(CCCCNC(=O)N(C)N=O)C(=O)NCc1ccccc1 (stereo not given) — outcome as called in the assay?
**A:** inactive

**Q:** Which outcome was assigned to CNC1C(=O)C(C)C(O)(C(CC(C)C(O)/C=C/C=C/CNC(=O)C(C)(C)C(O)\C(C)=C/C=C\C=C\Cc2cnc(C)o2)OC)C12C(=O)OC2COC (stereo not given) (tested in a mixture with another compound) in this test?
**A:** inactive

**Q:** Hello, I am checking results. What call was entered for COC(=O)c1ccc(OC(=O)Nc2ccc(C)cc2)cc1 ?
**A:** inactive

**Q:** Please let me know the test result on file for COC(=O)C(CC(=O)c1cc2c(cc1I)OCO2)Cc1cc(OC)c(OC)c(OC)c1I (stereo not given) .
**A:** inactive

**Q:** # lookup: test call for O=C(O)CNC(=O)Cc1ccccc1
**A:** inactive

###

experiment: NCI Yeast Anticancer Drug Screen. Data for the mlh1 rad18 strain (AID 175); settings: S. cerevisiae mlh1 rad18 strain growth inhibition; at 50.0 µM; hits give high values
This is part of a sample that, as a whole, favours compounds with a hit. Of some 79,000 tested, about 15% had one in any assay.
Label yes when growth inhibition >= 10%; otherwise no.

Some solved entries appear below for comparison.
{"Compound": "Cc1ncc([N+](=O)[O-])cc1C(=O)O", "Discrete Label": "no"}
{"Compound": "CNc1ccccc1C(N)=S", "Discrete Label": "yes"}
{"Compound": "COc1ccc2ccccc2c1C1NC(=O)c2ccccc2N1 (stereo not given)", "Discrete Label": "no"}
{"Compound": "CNC(=O)N(c1ccccc1)C1CCCCC1", "Discrete Label": "no"}
{"Compound": "O=C(Nc1ccc(S(=O)(=O)Nc2nccs2)cc1)c1cccnc1Nc1cccc(Cl)c1", "Discrete Label": "yes"}
{"Compound": "O=S(=O)(c1ccccc1)N1C[C@@H]2[C@H](C1)[C@H]1C=C[C@@H]2C1", "Discrete Label": "no"}
{"Compound": "COC(=O)CC1=CCCc2ccccc21", "Discrete Label": "no"}
{"Compound": "Cc1ccc(S(=O)(=O)c2c(N)c3nc4ccccc4n3c3nc4ccccc4nc23)cc1", "Discrete Label": "yes"}

**Q:** Could you tell me if the measured growth inhibition of COc1ccccc1OC(=O)Nc1ccc(S(=O)(=O)N(C)C)cc1 reaches 10% or more?
**A:** no

**Q:** Assess whether reported growth inhibition for O=[N+]([O-])c1ccc(/C=C/c2ccc([N+](=O)[O-])cc2S(=O)(=O)O)c(S(=O)(=O)O)c1 sits at 10% or higher.
**A:** yes

**Q:** Does the compound CCC(OC(=O)Nc1ccc(S(=O)(=O)NC2CCCCC2)cc1)c1ccco1 (stereo not given) have recorded growth inhibition that is 10% or more?
**A:** no

**Q:** Please indicate if the recorded growth inhibition for O=C1c2ccccc2C(O)N1CCc1c[nH]c2ccccc12 (stereo not given) meets or exceeds 10%.
**A:** no

**Q:** Assess whether reported growth inhibition for CNC(=O)CCC(=O)O sits at 10% or higher.
**A:** no

**Q:** Does growth inhibition meet or surpass 10% for Oc1ccc(Cn2c(-c3ccc(O)cc3)nc3ccccc32)cc1 ?
**A:** no

**Q:** Quick check: does CC(C)COS(=O)(=O)O have growth inhibition greater than or equal to 10%?
**A:** yes

**Q:** Form field: growth inhibition at least 10%? Entry: Cn1cnc2c([nH]c(=O)n2C2OC(CO)C(O)C2O)c1=N (stereo not given)
**A:** no

**Q:** Is the recorded value of growth inhibition equal to or greater than 10% for this compound? NC1=NN(c2ccccc2)C(=O)C1C(=O)C(=O)Nc1ccc(Cl)c(Cl)c1 (stereo not given)
**A:** no

**Q:** Quick check: does CC(C)C1NC(=O)CC(c2ccccc2)N(N=O)C1c1ccccc1 (stereo not given) have growth inhibition greater than or equal to 10%?
**A:** no

**Q:** Is reported growth inhibition greater than or equal to 10% here: O=C(O)Cc1ccc(-c2ccccc2)cc1
**A:** yes

**Q:** Answer whether growth inhibition of C#CC(O)(CC)CCCC (stereo not given) is greater than or equal to 10%.
**A:** no

**Q:** In plain terms: is recorded growth inhibition at least 10% for COc1ccc(C(=O)/C=C/c2cc(C(C)(C)C)c(O)c(C(C)(C)C)c2)cc1 ?
**A:** yes

**Q:** In plain terms: is recorded growth inhibition at least 10% for CC1(C)C=Cc2c(cc(O)c3c(=O)c4cc(Cl)ccc4[nH]c23)O1 ?
**A:** no

**Q:** Please indicate if the recorded growth inhibition for O=C(Nc1cccc(O)c1)OC1CCCCC1 meets or exceeds 10%.
**A:** yes

**Q:** Quick check: does COC1=NCc2ccccc2-c2ccccc21 have growth inhibition greater than or equal to 10%?
**A:** no
